Reported MR (Molar Ratio) values for the following binders.
Molecular target: T1, recombinant human cardiac troponin T (human, UniProt P45379 2-298)
T1 construct: In the ECL assay the cTnT came from the Troponin T hs CalSet calibrator; also called cTnT; TnT
Assay: SPR (Biacore T200, 37 C), Fab captured, cTnT analyte
Property Label: MR (Molar Ratio)

| Binder | Property Label | Observed Value |
| --- | --- | --- |
| anti-cTnT Fab mutant 20 (V101Y + Y104F) (Fab, V domains shown, also called combination 20) VH: EVQLQQSGPELVKPGASVKMSCKASGYTFTDYYMKWVKQSHGKSLEWIGDINPNNGETFYNQKFKDKATLTVDKSSSTAYMQLNSLTSEDSAVYYCATRYFDFWGQGTTLTVSS VL: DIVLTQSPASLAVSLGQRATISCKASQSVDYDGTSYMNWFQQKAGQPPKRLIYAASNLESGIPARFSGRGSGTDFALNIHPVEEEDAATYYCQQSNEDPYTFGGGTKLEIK | MR (Molar Ratio) | 0.6 |
| anti-cTnT Fab mutant 7 (Y34F, Y104F) (Fab, V domains shown, also called combination 7) VH: EVQLQQSGPELVKPGASVKMSCKASGYTFTDYFMKWVKQSHGKSLEWIGDINPNNGETFYNQKFKDKATLTVDKSSSTAYMQLNSLTSEDSAVYYCATRVFDFWGQGTTLTVSS VL: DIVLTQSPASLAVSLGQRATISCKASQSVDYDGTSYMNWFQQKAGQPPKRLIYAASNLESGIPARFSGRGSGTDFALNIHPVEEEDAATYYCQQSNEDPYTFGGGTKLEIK | MR (Molar Ratio) | 0.7 |
| anti-cTnT Fab mutant 18 (V101Y) (Fab, V domains shown, it was tied to mutant 18 by the printed mutation V101Y; also called combination 18) VH: EVQLQQSGPELVKPGASVKMSCKASGYTFTDYYMKWVKQSHGKSLEWIGDINPNNGETFYNQKFKDKATLTVDKSSSTAYMQLNSLTSEDSAVYYCATRYFDYWGQGTTLTVSS VL: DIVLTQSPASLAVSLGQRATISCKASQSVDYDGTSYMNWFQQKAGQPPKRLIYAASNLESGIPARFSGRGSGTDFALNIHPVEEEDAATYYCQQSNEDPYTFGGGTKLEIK | MR (Molar Ratio) | 0.5 |
| anti-cTnT Fab mutant 11 (Y34I, F60W, V101Y) (Fab, V domains shown, also called combination 11) VH: EVQLQQSGPELVKPGASVKMSCKASGYTFTDYIMKWVKQSHGKSLEWIGDINPNNGETWYNQKFKDKATLTVDKSSSTAYMQLNSLTSEDSAVYYCATRYFDYWGQGTTLTVSS VL: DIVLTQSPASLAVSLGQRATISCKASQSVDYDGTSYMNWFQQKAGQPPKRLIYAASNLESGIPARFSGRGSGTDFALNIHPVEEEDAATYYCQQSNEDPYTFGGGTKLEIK | MR (Molar Ratio) | 0.7 |
| anti-cTnT Fab mutant 17 (F60W) (Fab, V domains shown, also called combination 17) VH: EVQLQQSGPELVKPGASVKMSCKASGYTFTDYYMKWVKQSHGKSLEWIGDINPNNGETWYNQKFKDKATLTVDKSSSTAYMQLNSLTSEDSAVYYCATRVFDYWGQGTTLTVSS VL: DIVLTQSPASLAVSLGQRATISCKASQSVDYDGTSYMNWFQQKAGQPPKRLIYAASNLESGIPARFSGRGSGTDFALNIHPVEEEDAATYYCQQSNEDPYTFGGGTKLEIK | MR (Molar Ratio) | 0.7 |

All figures here come from patent US20210009668A1.
